Biological target: Serine/threonine-protein kinase B-raf (Homo sapiens, UniProt P15056, V600E)
Sequence (P15056 2-766 V600E limits assumed): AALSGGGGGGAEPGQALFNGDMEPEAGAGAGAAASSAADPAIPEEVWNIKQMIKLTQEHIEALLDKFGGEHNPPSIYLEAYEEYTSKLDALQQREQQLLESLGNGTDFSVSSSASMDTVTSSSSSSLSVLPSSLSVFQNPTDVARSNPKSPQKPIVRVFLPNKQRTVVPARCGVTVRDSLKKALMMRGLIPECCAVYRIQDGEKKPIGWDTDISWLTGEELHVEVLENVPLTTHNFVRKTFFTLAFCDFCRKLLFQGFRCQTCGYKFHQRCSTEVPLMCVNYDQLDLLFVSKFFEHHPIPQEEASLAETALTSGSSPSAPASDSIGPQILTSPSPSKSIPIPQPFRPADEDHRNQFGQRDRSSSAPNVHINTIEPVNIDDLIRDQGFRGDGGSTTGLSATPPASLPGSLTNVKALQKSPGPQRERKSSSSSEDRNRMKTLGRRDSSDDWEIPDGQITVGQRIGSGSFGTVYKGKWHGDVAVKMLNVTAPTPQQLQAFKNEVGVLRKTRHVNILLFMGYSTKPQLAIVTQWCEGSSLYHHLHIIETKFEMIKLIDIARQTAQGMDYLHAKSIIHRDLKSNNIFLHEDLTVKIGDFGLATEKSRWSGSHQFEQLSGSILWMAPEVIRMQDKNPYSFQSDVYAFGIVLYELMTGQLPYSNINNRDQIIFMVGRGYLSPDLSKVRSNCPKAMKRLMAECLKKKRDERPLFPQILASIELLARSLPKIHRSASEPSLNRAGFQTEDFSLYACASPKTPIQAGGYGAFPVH
Assay: Inhibition of BRAF V600E mutant in human A375 cells assessed as phosphorylation of MEK after 2 hrs by Western blotting analysis
Assay type: cell-based, A-375
valueType: IC50 (nM)
Return type: number; implicit unit nM.

Query: // returns reported IC50 for input "N#Cc1c(Oc2ccc(F)c(NC(=O)Cc3cccc(C(F)(F)F)c3)c2)ccc2nc(NC(=O)C3CC3)sc12"
Response: 12

====

Biological target: Dual specificity mitogen-activated protein kinase kinase 1 (Homo sapiens, UniProt Q02750)
Sequence (Q02750 whole entry): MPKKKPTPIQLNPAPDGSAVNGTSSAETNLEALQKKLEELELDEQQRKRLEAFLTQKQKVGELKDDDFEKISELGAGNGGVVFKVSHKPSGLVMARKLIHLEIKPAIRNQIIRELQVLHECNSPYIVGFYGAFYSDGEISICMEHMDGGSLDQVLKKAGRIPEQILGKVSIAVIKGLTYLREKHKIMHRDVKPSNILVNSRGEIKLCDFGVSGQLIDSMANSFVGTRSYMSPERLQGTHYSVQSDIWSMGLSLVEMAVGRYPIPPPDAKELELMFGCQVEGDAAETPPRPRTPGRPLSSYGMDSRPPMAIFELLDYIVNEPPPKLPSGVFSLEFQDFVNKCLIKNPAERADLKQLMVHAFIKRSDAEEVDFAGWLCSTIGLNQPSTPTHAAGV
Assay: Inhibition of N-terminal GST-tagged MEK1 (unknown origin) expressed in 293 cells using GST-ERK1(K71A) as substrate after 20 mins
valueType: IC50 (µM)
Return type: number; implicit unit µM.

Query: // returns reported IC50 for input "N#Cc1c(Oc2ccc(F)c(NC(=O)Cc3cccc(C(F)(F)F)c3)c2)ccc2nc(NC(=O)C3CC3)sc12"
Response: 3.7
